Molecular target: CTX-M14 (Escherichia coli, UniProt Q9L5C7)
Sequence (Q9L5C7 29-291, species assumed): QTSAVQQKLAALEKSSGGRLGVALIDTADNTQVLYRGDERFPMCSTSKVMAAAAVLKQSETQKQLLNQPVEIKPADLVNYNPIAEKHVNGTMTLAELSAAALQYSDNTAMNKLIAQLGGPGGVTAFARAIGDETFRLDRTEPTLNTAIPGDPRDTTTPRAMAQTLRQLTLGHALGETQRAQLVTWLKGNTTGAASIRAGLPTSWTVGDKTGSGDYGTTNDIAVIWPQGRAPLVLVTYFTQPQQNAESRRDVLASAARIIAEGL
assay-metric: log10(Ki) (log10 of the value in µM)
Please be aware that the numbers have been log10-transformed from Ki in µM.

Below are worked cases with known answers.
compound	log10(Ki)
O=C(Nc1nnn[nH]1)[C@@H]1CCCN(S(=O)(=O)c2cccc(C(F)(F)F)c2)C1 [Compound 9]	2.39
O=C(Nc1nnn[nH]1)[C@H]1CCN(C(=O)c2cccc(C(F)(F)F)c2)C1 [Compound 38]	3.48

Dear colleague, could you send me log10(Ki) for each of the items below? Thanks.
1. O=C(Nc1nnn[nH]1)[C@H]1CCN(S(=O)(=O)c2cccc(C(F)(F)F)c2)C1 [Compound 39]
2. O=C(N[C@H]1CCCCN(c2nnn[nH]2)C1=O)c1cc(C(F)(F)F)cc2nc[nH]c12.O=CO [Compound 21, formate]
3. O=C(Nc1nnn[nH]1)[C@@H]1CCN(C(=O)c2cccc(C(F)(F)F)c2)C1 [Compound 36]
4. O=C(Nc1nnn[nH]1)[C@@H]1CCN(S(=O)(=O)c2cccc(C(F)(F)F)c2)C1 [Compound 37]

Out:
1. 3.30
2. 2.37
3. 3.47
4. 3.00
